- Test system: AD38 cells
- TEST_METHOD_NOTES: Viability of AD38 cells (Promega CellTiter-Glo) at the end of compound treatment
- Assay type: cell-based
- EXPERIMENTAL_SETUP: 10 μM compound, 6 days, luminescence normalized against DMSO control wells (controls being 100%)
PROPERTY: AD38 Viability Normalized Result (CPAM/DMSO %) at 10 μM

compound=CCN1c2ccc(C(=O)NCCc3ccc(-c4ccccc4)cc3)cc2NC(=O)c2ccccc21 endpoint_unit=% observed=18
compound="CC(Cc1cccc(O)c1)NC(=O)c1ccc2c(c1)NC(=O)c1ccccc1S2 (centres unmarked)" endpoint_unit=% observed=118
compound=COC(=O)c1ccccc1-c1cccc(NC(=O)c2ccc3c(c2)NC(=O)c2ccccc2S3(=O)=O)c1 endpoint_unit=% observed=138
compound=O=C(NCCc1ccc(C(F)(F)F)cc1)c1ccc2c(c1)NC(=O)c1ccccc1S2 endpoint_unit=% observed=39
compound=O=C(NCCc1cncs1)c1ccc2c(c1)NC(=O)c1ccccc1S2(=O)=O endpoint_unit=% observed=118
compound=O=C(NCCC1CCCCC1)c1ccc2c(c1)NC(=O)c1ccccc1C2 endpoint_unit=% observed=60
compound=O=C(NCCC1CCC(F)(F)CC1)c1ccc2c(c1)NC(=O)c1ccccc1S2 endpoint_unit=% observed=125
compound=O=C(NCCOc1ccccc1)c1ccc2c(c1)NC(=O)c1ccccc1S2(=O)=O endpoint_unit=% observed=111
